Taken from ChEMBL document CHEMBL2016544.

# TARGET_UNDER_TEST: Cannabinoid receptor 1 (Homo sapiens)
# Sequence (P21554 whole entry): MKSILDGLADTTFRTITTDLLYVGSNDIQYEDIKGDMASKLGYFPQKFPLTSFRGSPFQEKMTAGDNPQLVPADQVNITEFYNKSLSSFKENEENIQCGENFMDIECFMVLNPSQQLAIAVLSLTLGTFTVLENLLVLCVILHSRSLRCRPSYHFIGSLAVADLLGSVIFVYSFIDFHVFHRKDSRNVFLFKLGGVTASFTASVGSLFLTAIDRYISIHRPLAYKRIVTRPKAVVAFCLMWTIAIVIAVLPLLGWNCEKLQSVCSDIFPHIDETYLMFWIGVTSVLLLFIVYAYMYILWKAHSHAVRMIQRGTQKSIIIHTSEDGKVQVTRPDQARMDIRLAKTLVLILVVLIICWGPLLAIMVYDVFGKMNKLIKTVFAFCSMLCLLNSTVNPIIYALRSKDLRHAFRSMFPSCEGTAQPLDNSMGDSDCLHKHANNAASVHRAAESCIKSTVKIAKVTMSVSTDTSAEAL
# METHOD_DESCRIPTION: Agonist activity at CB1 receptor
Please provide measured pEC50 for the entries that follow.
Give bare numbers, as −log10 of the molar value.

Here are 3 molecules together with their reported answers.
{"columns": ["SUBSTANCE_SMILES", "VAL"],
 "data": [
  ["CN(CC(N)=O)Cc1nc(-c2cn(CC3CCS(=O)(=O)CC3)c3c(Cl)cccc23)no1", 6.80],
  ["COc1cccc2c(-c3nsc(CN(C)CC(N)=O)n3)cn(CC3CCOCC3)c12", 5.90],
  ["CN(CC(N)=O)Cc1nc(-c2cn(CC3CCOCC3)c3c(Cl)cccc23)ns1", 6.20]
]}

Supply pEC50 value. Item: `COc1cccc2c(-c3nsc(CN4CCC(C(=O)NCCO)CC4)n3)cn(CC3CCOCC3)c12`
7.50

* * *

# METHOD_DESCRIPTION: Plasma protein binding in mouse
# Type: ADME, cell-free
# EXPERIMENTAL_SETUP: read-out: PPB (converted)
EXPERIMENTAL_ENDPOINT: fraction unbound
Give bare numbers.

Query fraction unbound for `NC(=O)CN1CCN(Cc2nc(-c3cn(CC4CCOCC4)c4c(Cl)cccc34)no2)CC1`
0.034

* * *

# METHOD_DESCRIPTION: Ratio of Cmax in brain to plasma of Wistar BRL rat at 24 mg/kg, po by LC-MS/MS analysis
# Assay type: ADME, organism-based
# Set-up: dose 24 mg/kg, route oral
EXPERIMENTAL_ENDPOINT: Kp
One number for each entry.

Quick one: give measured Kp for `NC(=O)CN1CCN(Cc2nc(-c3cn(CC4CCOCC4)c4c(Cl)cccc34)no2)CC1`
0.2

* * *

# METHOD_DESCRIPTION: Ratio of drug level in brain to plasma in mouse
# Format: ADME, organism-based
# EXPERIMENTAL_SETUP: read-out: BPR
EXPERIMENTAL_ENDPOINT: Kp
Answers are plain numbers.

Check out these entries, answers already filled in.
{"columns": ["SUBSTANCE_SMILES", "VAL"],
 "data": [
  ["O=C(NCCO)[C@H]1CCCN(Cc2nc(-c3cn(CC4CCS(=O)(=O)CC4)c4c(Cl)cccc34)ns2)C1", 0.03],
  ["Cc1c(C(=O)c2cccc3ccccc23)c2cccc3c2n1[C@H](CN1CCOCC1)CO3", 1.3],
  ["O=C(NCCO)C1CCN(Cc2nc(-c3cn(CC4CCOCC4)c4c(Cl)cccc34)no2)CC1", 0.03]
]}

Hi! Can you tell me Kp for each of these molecules?
1. CN(CC(N)=O)Cc1nc(-c2cn(CC3CCOCC3)c3c(Cl)cccc23)no1.Cl
2. COc1cccc2c(-c3nsc(CN4CCN(CC(N)=O)CC4)n3)cn(CC3CCOCC3)c12

1: 0.9; 2: 0.18

Note Kp for the molecule shown: `NC(=O)CN1CCN(Cc2nc(-c3cn(CC4CCOCC4)c4c(Cl)cccc34)no2)CC1`
0.16

* * *

# METHOD_DESCRIPTION: Cmax in mouse plasma at 3 umol/kg, iv
# Assay type: ADME, organism-based
# Design: dose 3 umol/kg, route intravenous
EXPERIMENTAL_ENDPOINT: Cmax

Complete the entry with Cmax for `NC(=O)CN1CCN(Cc2nc(-c3cn(CC4CCOCC4)c4c(Cl)cccc34)no2)CC1`
814 ng/mL
